# system_under_test: Pin1 (Homo sapiens, UniProt Q13526)
# Sequence (Q13526 whole entry): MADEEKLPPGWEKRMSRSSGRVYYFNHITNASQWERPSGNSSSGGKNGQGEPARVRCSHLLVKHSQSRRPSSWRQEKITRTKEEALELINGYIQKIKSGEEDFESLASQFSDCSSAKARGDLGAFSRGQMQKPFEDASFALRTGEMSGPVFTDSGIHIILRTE
# experiment_summary: Pin1 fluorescence polarization competition assay, primary qHTS (HiFluor-488 / Alexa488 probe)
# condition_notes: Average HTS Potency, average over Alexa488 primary, Alexa488 reconfirmed and Tamra secondary assays
assay_metric: IC50 (µM)

Consider the reported IC50 for these compounds:
compound	unit	recorded_result
O=C(NC(Cc1ccccc1)C(=O)O)/C(=C\c1ccco1)NC(=O)c1ccccc1 (stereo not drawn)	µM	19
Cc1ccc(C)n1-c1sccc1C(=O)O	µM	24
O=C(O)c1cc(Cl)c2c(c1)[C@@H]1C=CC[C@@H]1[C@H](c1ccc(S(=O)(=O)N3CCOCC3)cc1)N2	µM	23
CCCCOc1ccc(C(=O)N/C(=C/c2cccc([N+](=O)[O-])c2)C(=O)O)cc1	µM	15

A: O=C(O)C1Nc2c(C(F)(F)F)ccc(Cl)c2C2C=CCC12 (stereo not drawn)
B: O=C(O)c1cc2cccc([N+](=O)[O-])c2[nH]1
C: N#Cc1no[n+]([O-])c1C(=O)c1cccs1
D: O=C1OC(/C(=C\Nc2cc(Cl)ccc2O)[N+](=O)[O-])c2ccccc21 (stereo not drawn)
Highest IC50 first, then in falling order down to the smallest. Would you mind listing the labels in the order asked for? A, B, D, C

====

# system_under_test: Pin1 (Homo sapiens)
# experiment_summary: confirmatory Pin1 fluorescence polarization competition assay (Alexa488 reconfirmed)
pIC50: −log10 of the molar value.
assay_metric: pIC50

Sample records with pIC50:
compound	recorded_result
C=CCOc1ccc(C(c2c(C(=O)O)[nH]c3ccccc23)c2c(C(=O)O)[nH]c3ccccc23)cc1 [Compound 46]	4.57
O=C(O)C1Nc2c(Cl)cc(Cl)c(Cl)c2C2C=CCC12 (stereo not drawn) [Compound 5]	5.70
COc1ccc(C(=O)c2no[n+]([O-])c2C(=O)c2ccc(OC)cc2)cc1 [Compound 32]	6.62

a: CCCCCC(=O)Nc1cc(S(=O)(=O)O)cc2cc(S(=O)(=O)O)cc(O)c12 [Compound 16]
b: COc1ccc(NC(=O)CN(C)C(=O)c2cc3c(s2)CCC3)cc1 [Compound 26]
c: COc1ccccc1Nc1ccc2c(O)cc(S(=O)(=O)O)cc2c1 [Compound 14]
d: Cc1oc(-c2ccc3c(c2)OCCO3)cc1C(=O)NC(Cc1ccccc1)C(=O)O (stereo not drawn) [Compound 21]
e: COc1cc(/C=C2\SC(=O)N(c3ccc(Cl)cc3)C2=O)cc([N+](=O)[O-])c1O [Compound 38]
Sort the 5 compounds by pIC50; largest first, smallest last. Form entry: labels listed in requested order. c, a, e, d, b
(c: 6.00, a: 5.70, e: 5.22, d: 4.96, b: 4.62)

P: CCCCOc1ccc(C(=O)N/C(=C/c2cccc([N+](=O)[O-])c2)C(=O)O)cc1 [Compound 36]
Q: NS(=O)(=O)c1cc(C(=O)NC2CCSc3ccccc32)ccc1Cl (stereo not drawn) [Compound 11]
R: CCCCCCCCCCCCN1[C@@H](C(=O)O)c2cc(C(F)(F)F)ccc2S1(=O)=O [Compound 34]
Ascending by pIC50, please. Dear reader, please state the labels in the requested order. R, P, Q
(R: 4.62, P: 4.85, Q: 5.52)

====

# system_under_test: Pin1 (Homo sapiens, UniProt Q13526)
# experiment_summary: Pin1 fluorescence polarization competition assay, primary qHTS (HiFluor-488 / Alexa488 probe)
# condition_notes: Alexa488 Primary Potency, primary qHTS
pIC50: −log10 of the molar value.
assay_metric: pIC50

Worked examples, 5 compounds total:
compound	recorded_result
Cc1ccc(NC(=O)CN(C)C(=O)c2cccc(-n3cccc3)c2)cc1	4.42
CC(=O)Nc1cc(=O)c2[nH]o[nH]c=2c1=O	6.00
O=C(O)Cc1c[nH]c2cccc(O)c12	4.12
Cc1cc(C(=O)NCc2ccc(C(=O)O)o2)c(C)o1	4.32
O=C(O)c1cc(Cl)c2c(c1)[C@@H]1C=CC[C@@H]1[C@H](c1ccc(S(=O)(=O)N3CCOCC3)cc1)N2	4.52

I: N#Cc1no[n+]([O-])c1C(=O)c1cccs1
II: COc1ccccc1Nc1ccc2c(O)cc(S(=O)(=O)O)cc2c1
Consider entries I and II . Which has the numerically lower pIC50? Please respond with the label that marks your chosen entry. II

P: O=C(O)C1Nc2ccc(Br)cc2C2C=CCC12 (stereo not drawn)
Q: Cc1ccc(C(=O)c2no[n+]([O-])c2C(=O)c2ccc(C)cc2)cc1
R: COc1cc(C(c2c(C(=O)O)[nH]c3ccccc23)c2c(C(=O)O)[nH]c3ccccc23)ccc1OCc1ccccc1
Rank descending by pIC50. The labels, placed in the requested order, form the answer. Q, P, R

I: CCCCCCCCCCCCN1[C@@H](C(=O)O)c2cc(C(F)(F)F)ccc2S1(=O)=O
II: O=S(=O)(O)c1cc(O)c2cc(Nc3ccccc3)ccc2c1
Please indicate which entry, I or II , has the lower recorded pIC50 value. When you have decided, please share the label of that item. I

====

# system_under_test: Pin1 (Homo sapiens)
# experiment_summary: confirmatory Pin1 fluorescence polarization competition assay (Alexa488 reconfirmed);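 note: Pin1 competition with a HiFluor488-labelled peptide probe, read as fluorescence polarization after 10 min at room temperature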
# condition_notes: read-out: Alexa488 Reconfirmed Efficacy
assay_metric: Emax (%)

molecule	assay_metric	unit	recorded_result
O=C(c1cccs1)c1no[n+]([O-])c1C(=O)c1cccs1 [Compound 28]	Emax	%	99
CCCCOc1ccc(C(=O)N/C(=C/c2cccc([N+](=O)[O-])c2)C(=O)O)cc1 [Compound 36]	Emax	%	62
CC(C)COc1ccc(C(=O)N/C(=C\c2cccc([N+](=O)[O-])c2)C(=O)O)cc1 [Compound 37]	Emax	%	63
COc1cc(C(c2c(C(=O)O)[nH]c3ccccc23)c2c(C(=O)O)[nH]c3ccccc23)ccc1OCc1ccccc1 [Compound 47]	Emax	%	84
O=C(O)Cc1c[nH]c2cccc(O)c12 [Compound 23]	Emax	%	92
CC(=O)Nc1cc(=O)c2[nH]o[nH]c=2c1=O [Compound 50]	Emax	%	98
CCCCCCCCCCCCN1[C@@H](C(=O)O)c2cc(C(F)(F)F)ccc2S1(=O)=O [Compound 34]	Emax	%	104
O=C(O)C1Nc2c(Cl)cc(Cl)c(Cl)c2C2C=CCC12 (stereo not drawn) [Compound 5]	Emax	%	75
COc1ccc(NS(=O)(=O)c2ccc3c(c2)[C@H]2C=CC[C@H]2[C@@H](c2ccc(C(=O)O)cc2)N3)cc1 [Compound 40]	Emax	%	99
Cc1ccc(C)c2c1NC(C(=O)O)C1CC=CC21 (stereo not drawn) [Compound 7]	Emax	%	91
COc1ccccc1Nc1ccc2c(O)cc(S(=O)(=O)O)cc2c1 [Compound 14]	Emax	%	59
C=CCOc1ccc(C(c2c(C(=O)O)[nH]c3ccccc23)c2c(C(=O)O)[nH]c3ccccc23)cc1 [Compound 46]	Emax	%	84
NS(=O)(=O)c1cc(C(=O)NC2CCSc3ccccc32)ccc1Cl (stereo not drawn) [Compound 11]	Emax	%	93
Cn1nc(-c2ccncc2)nc2c(=O)n(C)c(=O)nc1-2 [Compound 49]	Emax	%	70
O=C1OC(/C(=C\Nc2cc(Cl)ccc2O)[N+](=O)[O-])c2ccccc21 (stereo not drawn) [Compound 12]	Emax	%	93
O=S(=O)(O)c1cc(O)c2cc(Nc3ccccc3)ccc2c1 [Compound 15]	Emax	%	71
COc1ccc(NC(=O)CN(C)C(=O)c2cc3c(s2)CCC3)cc1 [Compound 26]	Emax	%	111
Cc1ccc(C)n1-c1cccc(C(=O)O)c1 [Compound 17]	Emax	%	83

====

# system_under_test: Pin1 (Homo sapiens)
# experiment_summary: Pin1 fluorescence polarization competition assay, primary qHTS (HiFluor-488 / Alexa488 probe)
# condition_notes: read-out: Average HTS Efficacy
assay_metric: Emax (%)

Completed entries (count: 3):
compound	system_under_test	Emax (%)
COC(=O)COc1ccc(C2Nc3c(Cl)ccc(C(=O)O)c3C3C=CCC32)cc1 (centres unmarked)	Pin1 (Homo sapiens)	76
O=S(=O)(O)c1ccc(O)c2cc(Nc3ccccc3)ccc12	Pin1 (Homo sapiens)	89
Cc1ccc(C)c2c1NC(C(=O)O)C1CC=CC21 (centres unmarked)	Pin1 (Homo sapiens)	72

P: Cc1cccc(N(Cc2cc(=O)[nH]c3ccccc23)C(=O)CCl)c1
Q: O=S(=O)(O)c1cc(O)c2cc(Nc3ccccc3)ccc2c1
Hi, I'm comparing P with Q and wondering which one has the bigger number for Emax. Any idea? Selection: enter the item's label. Q

====

# system_under_test: Pin1 (Homo sapiens, UniProt Q13526)
# experiment_summary: Pin1 fluorescence polarization competition assay, primary qHTS (HiFluor-488 / Alexa488 probe);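 note: Pin1 protein with fluorescent peptide probe, compound displacement read by fluorescence polarization, percent inhibition derived from corrected polarization values, concentration-response curves in 1536-well format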
# condition_notes: Alexa488 Primary Potency, primary qHTS
pIC50: −log10 of the molar value.
assay_metric: pIC50

Example cases with answers are listed next.
molecule	pIC50
O=C(O)C1Nc2c(C(F)(F)F)ccc(Cl)c2C2C=CCC12 (stereo not drawn)	4.35
Cc1ccc(C)c2c1NC(C(=O)O)C1CC=CC21 (stereo not drawn)	4.35
Cc1c(C(=O)c2no[n+]([O-])c2C(=O)c2cnn(C)c2C)cnn1C	5.52

P: CC(C)COc1ccc(C(=O)N/C(=C\c2cccc([N+](=O)[O-])c2)C(=O)O)cc1
Q: O=C(O)CCCNC(=O)/C=C/c1ccco1
Parameter metric = pIC50. Return the lower-valued option from P and Q . Label of pick, please. P
(P: 4.07, Q: 4.42)

1: CC(=O)c1ccc2c(c1)C1C=CCC1C(C(=O)O)N2 (stereo not drawn)
2: Cc1ccc(C)n1-c1cccc(C(=O)O)c1
Which entry has a larger number for pIC50, 1 or 2 ? Pick one; state its label. 1
(1: 5.22, 2: 5.00)

I: O=S(=O)(Nc1nc(-c2sccc2Cl)cs1)c1cc(Cl)ccc1Cl
II: Cc1ccc(N(Cc2cc(=O)[nH]c3ccccc23)C(=O)CCl)cc1
Which value of pIC50 is numerically greater: that of I or that of II ? # respond with the chosen item's label II

Origin of values: patent US11129835B2
